# measurementTarget: PRMT5 (Homo sapiens)
# Construct: purchased Viva (custom protein)
# experiment: PRMT5 biochemical IC50 assay with no cofactor
# reportedConditions: PRMT5, no cofactor; read-out: No Cofactor/rel IC50
pIC50: −log10 of the molar value.
Reported pIC50 values for the following compounds.

Some solved cases for reference:
compound: CCc1cc(NC(=O)C(=O)N2C[C@@H](C)CC[C@@H]2c2ccc3sc([C@@H]4C[C@H]5CN(C)C[C@H]54)nc3c2)cnc1N
measurementType: pIC50
valueReported: > 7.30
//
compound: Cc1cc(NC(=O)C(=O)N2C[C@H](C)CC[C@H]2c2ccc(NCC(F)(F)F)cc2)cnc1N (single isomer, unassigned)
measurementType: pIC50
valueReported: 6.30 to 7.30
//
compound: NC(=O)c1cncc(NC(=O)C(=O)N2CC[C@H]3C[C@@H](O)CC[C@@H]3C2)c1 (racemic)
measurementType: pIC50
valueReported: < 6.30
//
compound: COCc1nc2cc([C@H]3CC[C@H](C)CN3C(=O)C(=O)Nc3cnc(N)c(C)c3)ccc2s1 (single isomer, unassigned)
measurementType: pIC50
valueReported: 6.30 to 7.30
//
compound: Cc1cc(NC(=O)C(=O)N2C[C@H](C)CC[C@H]2c2ccc3c(=O)[nH]ccc3c2)cnc1N (single isomer, unassigned)
measurementType: pIC50
valueReported: < 6.30
//
compound: Cc1ncc(NC(=O)C(=O)N2C[C@@H](C)CC[C@@H]2c2ccc3c(c2)CCC(=O)N3)cc1C(F)F (single isomer, unassigned)
measurementType: pIC50
valueReported: < 6.30

Q) Determine from records and report pIC50 for Cc1cc(NC(=O)C(=O)N2C[C@@H](C)CC[C@@H]2c2ccc3c(=O)[nH]ccc3c2)cnc1N (single isomer, unassigned)
A) 6.30 to 7.30

Q) For the compound COc1ncc(NC(=O)C(=O)N2C[C@H](C)CC[C@H]2c2ccc(NC(C)=O)nc2)cc1C(N)=O (single isomer, unassigned) , give its measured pIC50 value.
A) 6.30 to 7.30

Q) Give me measured pIC50, please, for this compound: Cc1cc(NC(=O)C(=O)N2CC[C@H](C#N)C[C@@H]2c2ccccc2)cnc1N (single isomer, unassigned)
A) < 6.30

Q) Read the entry Cc1cc(NC(=O)C(=O)N2C[C@H](C)CC[C@H]2c2cccc(Cl)c2)cnc1N (single isomer, unassigned) and write its reported pIC50.
A) < 6.30

Q) Hello, please tell me recorded pIC50 for this one: C[C@H]1CC[C@H](c2cc(F)c3[nH]ncc3c2)N(C(=O)C(=O)Nc2cncc(C(N)=O)c2)C1 (single isomer, unassigned)
A) < 6.30

Q) Please indicate pIC50 recorded for C[C@@H]1CN(C(=O)C(=O)Nc2cncc(C(N)=O)c2)[C@@H](c2ccc(F)cc2)C(F)(F)C1 (racemic)
A) 6.30 to 7.30

====

# measurementTarget: PRMT5 (Homo sapiens)
# Construct: purchased Viva (custom protein)
# experiment: PRMT5 biochemical IC50 assay with MTA as cofactor
# reportedConditions: PRMT5, MTA as cofactor; read-out: MTA IC50
IC50: recorded values

compound: CNc1ccc([C@H]2CC[C@H](C)CN2C(=O)C(=O)Nc2cncc(C(N)=O)c2)cc1
IC50: < 0.05 µM

Q) Send back PRMT5 (Homo sapiens) IC50 of Cc1ncc(NC(=O)C(=O)N2C[C@@H](C)CC[C@@H]2c2ccccc2)cc1C(N)=O (single isomer, unassigned) only.
A) < 0.05 µM

Q) Check PRMT5 (Homo sapiens) data and give IC50 for COc1ncc(NC(=O)C(=O)N2C[C@H](C)CC[C@H]2c2cc(F)c(F)c(F)c2)cc1C(N)=O (single isomer, unassigned) .
A) < 0.05 µM

====

The following compounds are shown together with reported IC50 values.
# System: HAP1 MTAP-deleted cell line
# experiment: SDMA in-cell western assay, HAP1 MTAP-deleted
# Type: cell-based
# reportedConditions: Homo sapiens, HAP1, SDMA in-cell western, HAP1 MTAP-deleted; read-out: HAP1 MTAP deleted IC50

compound: C[C@]1(F)CC[C@@H](c2ccccc2)N(C(=O)C(=O)Nc2cncc(C(N)=O)c2)C1 (single isomer, unassigned)
valueReported: > 1000 nM
//
compound: CCc1cc(NC(=O)C(=O)N2C[C@@H](C)CC[C@@H]2c2ccc3sc(C4CCN(CCC(F)(F)F)CC4)nc3c2)cnc1N
valueReported: < 100 nM
//
compound: CCc1cc(NC(=O)C(=O)N2C[C@@H](C)CC[C@@H]2c2ccc(N3CCN(C(C)C)CC3)c(C)c2)cnc1N (racemic)
valueReported: < 100 nM
//
compound: CCc1cc(NC(=O)C(=O)N2C[C@@H](C)CC[C@@H]2c2ccc(C(=O)NC)s2)cnc1N (single isomer, unassigned)
valueReported: < 100 nM
//
compound: NC(=O)c1cncc(NC(=O)C(=O)N2C[C@@H](CO)CC[C@@H]2c2ccccc2)c1 (racemic)
valueReported: 100 to 1000 nM

Read the next record carefully.
Q) Specify IC50 for CNc1nc2cc([C@H]3CC[C@H](C)CN3C(=O)C(=O)Nc3cnc(N)c(C)c3)ccc2s1 (single isomer, unassigned) , system HAP1 MTAP-deleted cell line.
A) < 100 nM

====

# measurementTarget: PRMT5 (Homo sapiens, UniProt O14744)
# Construct: purchased Viva (custom protein)
# Sequence (O14744 whole entry): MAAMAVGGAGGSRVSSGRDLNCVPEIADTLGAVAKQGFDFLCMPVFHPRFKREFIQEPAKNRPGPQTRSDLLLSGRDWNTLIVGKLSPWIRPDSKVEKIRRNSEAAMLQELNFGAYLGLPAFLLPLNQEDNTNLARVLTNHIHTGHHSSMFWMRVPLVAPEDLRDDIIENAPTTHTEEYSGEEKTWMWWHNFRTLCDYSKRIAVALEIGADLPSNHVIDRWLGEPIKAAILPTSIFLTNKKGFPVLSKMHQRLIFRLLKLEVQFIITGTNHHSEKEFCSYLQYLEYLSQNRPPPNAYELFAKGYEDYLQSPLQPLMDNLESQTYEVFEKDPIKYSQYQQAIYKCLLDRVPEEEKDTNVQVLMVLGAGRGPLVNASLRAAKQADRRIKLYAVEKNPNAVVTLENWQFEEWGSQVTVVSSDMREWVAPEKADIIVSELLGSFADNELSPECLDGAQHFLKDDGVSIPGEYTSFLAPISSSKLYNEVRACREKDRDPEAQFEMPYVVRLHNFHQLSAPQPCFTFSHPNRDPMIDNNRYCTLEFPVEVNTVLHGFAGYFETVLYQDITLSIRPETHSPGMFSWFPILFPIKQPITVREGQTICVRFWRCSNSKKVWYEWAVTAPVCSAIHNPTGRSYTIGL
# Sequence (Q9BQA1 whole entry partner): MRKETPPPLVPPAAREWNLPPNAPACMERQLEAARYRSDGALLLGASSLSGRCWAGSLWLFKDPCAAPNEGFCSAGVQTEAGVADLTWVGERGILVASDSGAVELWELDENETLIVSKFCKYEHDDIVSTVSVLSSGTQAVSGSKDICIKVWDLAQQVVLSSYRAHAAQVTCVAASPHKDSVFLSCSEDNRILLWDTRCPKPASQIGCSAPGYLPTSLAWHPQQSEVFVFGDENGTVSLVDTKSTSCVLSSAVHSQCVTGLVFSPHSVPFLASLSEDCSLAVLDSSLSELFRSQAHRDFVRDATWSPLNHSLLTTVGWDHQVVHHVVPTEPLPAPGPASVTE
# experiment: PRMT5 biochemical IC50 assay with MTA as cofactor
# reportedConditions: PRMT5, MTA as cofactor; read-out: MTA IC50
pIC50: −log10 of the molar value.
measurementType: pIC50

Q) For the molecule NC(=O)c1cncc(NC(=O)C(=O)N2C[C@@H](O)CC[C@@H]2c2ccccc2)c1 (racemic) , give its reported pIC50.
A) 6.30 to 7.30

Q) Give recorded pIC50. CCc1cc(NC(=O)C(=O)N2C[C@@H](C)CC[C@@H]2c2ccc(NC3CCN(C)CC3)cc2)cnc1N
A) > 7.30

Q) Supply pIC50 value. Item: C[C@@H]1CC[C@@H](c2cccc(S(N)(=O)=O)c2)N(C(=O)C(=O)Nc2cncc(C(N)=O)c2)C1 (racemic)
A) > 7.30

Q) Please supply the value of reported pIC50 for the item CCc1cc(NC(=O)C(=O)N2C[C@@H](C)CC[C@@H]2c2ccc3sc([C@@H]4CCN(C)C4)nc3c2)cnc1N (single isomer, unassigned)
A) > 7.30

Q) // fetch pIC50 given entry C[C@H]1CC[C@H](C2CCC2)N(C(=O)C(=O)Nc2cncc(C(N)=O)c2)C1 (single isomer, unassigned)
A) > 7.30

Q) Please look at this molecule and report its pIC50: Cc1cc(NC(=O)C(=O)N2C[C@H](C)CC[C@H]2c2cc3[nH]ncc3s2)cnc1N (single isomer, unassigned) [Compound 826]
A) 6.30 to 7.30

====

Form field: pIC50 (one value per entry).
# Tested on: HAP1 MTAP-deleted cell line
# experiment: SDMA in-cell western assay, HAP1 MTAP-deleted
# Format: cell-based
# reportedConditions: Homo sapiens, HAP1, SDMA in-cell western, HAP1 MTAP-deleted; read-out: HAP 1 MTAP deleted IC50
pIC50: −log10 of the molar value.

Below, each entry is followed by its recorded pIC50 result.
compound: CCc1cc(NC(=O)C(=O)N2C[C@@H](C)CC[C@@H]2c2ccc(N3CCN(CC)CC3)c(C)c2)cnc1N (racemic)
measurementTarget: HAP1 MTAP-deleted cell line
valueReported: > 7.00
--
compound: C[C@H]1CC[C@H](c2ccc3sc(C4CCN(C)CC4)nc3c2)N(C(=O)C(=O)Nc2cnc(OC(F)(F)F)c(C(N)=O)c2)C1 (single isomer, unassigned)
measurementTarget: HAP1 MTAP-deleted cell line
valueReported: > 7.00
--
compound: C[C@@H]1CC[C@@H](c2ccc(S(N)(=O)=O)cc2)N(C(=O)C(=O)Nc2cncc(C(N)=O)c2)C1 (racemic)
measurementTarget: HAP1 MTAP-deleted cell line
valueReported: < 6.00
--
compound: Cc1cc(NC(=O)C(=O)N2C[C@H](C)CC[C@H]2C)cnc1N (racemic)
measurementTarget: HAP1 MTAP-deleted cell line
valueReported: < 6.00
--
compound: Cc1cc(NC(=O)C(=O)N2C[C@H](C)CC[C@H]2c2ccc3nn(C)cc3c2)cnc1N (racemic)
measurementTarget: HAP1 MTAP-deleted cell line
valueReported: > 7.00
--
compound: CCc1cc(NC(=O)C(=O)N2C[C@@H](C)[C@@H](OC)C[C@@H]2c2ccc3scnc3c2)cnc1N (single isomer, unassigned)
measurementTarget: HAP1 MTAP-deleted cell line
valueReported: > 7.00
--
compound: CCc1cc(NC(=O)C(=O)N2C[C@@H](C)CC[C@@H]2c2cc3[nH]ncc3s2)cnc1N (single isomer, unassigned)
measurementTarget: HAP1 MTAP-deleted cell line
valueReported: < 6.00
--
compound: Cc1cc(NC(=O)C(=O)N2C[C@H](C)CC[C@H]2c2ccc(-c3cncs3)cc2)cnc1N (single isomer, unassigned)
measurementTarget: HAP1 MTAP-deleted cell line
valueReported: < 6.00
--
compound: NC(=O)c1cncc(NC(=O)C(=O)N2C[C@@H]3CC[C@@H](C3)[C@@H]2c2cccs2)c1 (racemic)
measurementTarget: HAP1 MTAP-deleted cell line
valueReported: 6.00 to 7.00
--
compound: CCc1cc(NC(=O)C(=O)N2C[C@@H](C)CC[C@@H]2c2ccc3nn(C4CCN(C)CC4)cc3c2)cnc1N
measurementTarget: HAP1 MTAP-deleted cell line
valueReported: > 7.00

Q) Give pIC50 for Cc1cc(NC(=O)C(=O)N2CCCCC2C(C)C)cnc1N (racemic)
A) 6.00 to 7.00

Q) Look up and report measured pIC50 for this entry: Cc1cc(NC(=O)C(=O)N2C[C@H](C)CC[C@H]2c2ccc3[nH]c(N)nc3c2)cnc1C (racemic)
A) > 7.00

Q) Hello, please tell me recorded pIC50 for this one: Cc1cc(NC(=O)C(=O)N2CCCC[C@H]2C2CCCCC2)cnc1N (single isomer, unassigned)
A) < 6.00

Q) Tell me measured pIC50 for CC[C@@H]1CC[C@H](c2ccccc2)N(C(=O)C(=O)Nc2cncc(C(N)=O)c2)C1 (single isomer, unassigned) please.
A) 6.00 to 7.00

Q) Given the compound C[C@H]1CC[C@H](c2ccc3sc(C4CCN(C)CC4)nc3c2)N(C(=O)C(=O)Nc2cncc(C(N)=O)c2)C1 (single isomer, unassigned) , write its reported pIC50.
A) > 7.00

Q) Give the measured pIC50 for CCc1cc(NC(=O)C(=O)N2C[C@@H](C)CC[C@@H]2c2cc(Cl)cc(OCCN(C)C)c2)cnc1N
A) > 7.00

Q) Please report the measured pIC50 for Cc1cncc(NC(=O)C(=O)N2C[C@H](C)CC[C@H]2c2ccc(O)cc2)c1 (racemic)
A) 6.00 to 7.00

Q) Return the recorded pIC50 value; entry: C[C@@H]1CC[C@@H](c2ccc3[nH]ncc3c2)N(C(=O)C(=O)Nc2cnc(N)c(C3CC3)c2)C1 (single isomer, unassigned)
A) < 6.00

Q) For the compound C[C@@H]1CC[C@@H](c2ccccc2C#N)N(C(=O)C(=O)Nc2cncc(C(N)=O)c2)C1 (racemic) , report pIC50.
A) < 6.00

Q) Dear colleague, please send me the reported pIC50 for COc1ncc(NC(=O)C(=O)N2C[C@@H](C)CC[C@@H]2c2ccc3cnccc3c2)cc1C(N)=O (single isomer, unassigned) when you can.
A) > 7.00

Q) Could you please provide reported pIC50 for COCCc1nc2cc([C@@H]3CC[C@@H](C)CN3C(=O)C(=O)Nc3cnc(N)c(C4CC4)c3)ccc2s1 (single isomer, unassigned) ? Thanks!
A) > 7.00

Q) Report pIC50, nothing else, for this compound: Cc1cc(NC(=O)C(=O)N2C[C@H](C)CC[C@H]2[C@@H]2CCC[C@H](O)C2)cnc1N (single isomer, unassigned)
A) < 6.00

Q) Tell me pIC50 reported for C[C@@H]1CC[C@@H](c2ccc(Cl)cc2)N(C(=O)C(=O)Nc2cncc(C(N)=O)c2)C1 (single isomer, unassigned)
A) > 7.00
